# procedure-details: qHTS assay for identifying genotoxic compounds that show differential cytotoxicity against isogenic chicken DT40 cell lines with known DNA damage response pathways - Rev3 mutant cell line (AID 743014); note: nearly all actives have a fitted effect of over 55% in size
# condition-context: chicken DT40 Rev3-/- viability, CellTiter-Glo, 40 h; series mostly up to 68.4 µM
Results filed as inconclusive are left out. The source made the active and inactive calls. Calls come from the whole dose curve; as a rule, active = well fitted cell-killing curve with a large enough effect in the repeat runs; inconclusive = weak or mixed curves, or effect the other way; inactive = no such curve, though single readings can be large or run the other way.
Pick from class 1 = active, class 0 = inactive when you respond.

Answered cases to consult:
Oc1ccc(C2(c3ccc(O)cc3)CCCCC2)cc1 :: class 1
COc1ccc(OC)c(CC(C)N)c1 (stereo not drawn) :: class 0
c1ccc2cc3c(cc2c1)-c1cccc2cccc-3c12 :: class 0
OC(c1ccc(Cl)cc1)(c1ccc(Cl)cc1)C(Cl)(Cl)Cl :: class 1
CC(=O)[O-].[Tl+] :: class 1
ClC1=C(Cl)C2(Cl)C3C(Cl)C(Cl)CC3C1(Cl)C2(Cl)Cl (stereo not drawn) :: class 1
Oc1ccc(C2(c3ccc(O)cc3)c3ccccc3-c3ccccc32)cc1 :: class 1

Turning now to a further compound:
*Q* Could you kindly confirm the outcome this assay logged for CC1CCC(C(C)C)C(OC(=O)c2ccccc2N)C1 (stereo not drawn) ?
*A* class 0

====

# procedure-details: qHTS assay to identify small molecule antagonists of the glucocorticoid receptor (GR) signaling pathway - cell viability counter screen (AID 720693); note: nearly all actives have a fitted effect of over 55% in size
# condition-context: GR-bla HeLa viability, CellTiter-Glo luminescence, 18 h, with 5 nM dexamethasone present; series mostly up to 58.5 µM
# From the text: National Center for Advancing Translational Sciences [NCATS] NIH Chemical Genomics Center [NCGC] U.S. Environmental Protection Agency [EPA] National Institutes of Environmental Health Sciences [NIEHS] National Toxicology Program [NTP] U.S. Food and Drug Administration [FDA] The Glucocorticoid receptor (GR) is one of the members of the nuclear receptor family of ligand-dependent transcription factors. […] The activation of the reporter gene under culture conditions can be detected by fluorescence intensity. […]
Inconclusive results are not listed. The source made the active and inactive calls. Calls follow the shape of the dose curve; as a rule, active = well fitted cell-killing curve with a large enough effect in the repeat runs; inconclusive = weak or mixed curves, or effect the other way; inactive = no such curve, though single readings can be large or run the other way.
Pick from 1.0 = active, 0.0 = inactive when you respond.

Answered cases to consult:
Cn1cc(C2=C(c3cn(C4CCN(Cc5ccccn5)CC4)c4ccccc34)C(=O)NC2=O)c2ccccc21 :: 0.0
CC(C)CCCCCCCOP(=O)(Oc1ccccc1)Oc1ccccc1 :: 0.0
CN(C)C(=S)S :: 0.0
CCCOCC(=Nc1ccc(Cl)cc1C(F)(F)F)n1ccnc1 :: 1.0
CNC(C)Cc1ccc2c(c1)OCO2 (stereo not given) :: 0.0
CC(=O)[O-].CC(=O)[O-].[Hg+2] :: 1.0
C[C@H]1CC[C@@H]2[C@@H](C)[C@H]3[C@H](C[C@H]4[C@@H]5CC=C6CC(O[C@@H]7O[C@H](CO)[C@H](O)[C@H](O[C@@H]8O[C@H](CO)[C@@H](O)[C@H](O)[C@H]8O)[C@H]7O[C@H]7O[C@@H](C)[C@H](O)[C@@H](O)[C@H]7O)CC[C@]6(C)[C@H]5CC[C@]34C)N2C1 (stereo not given in full) :: 0.0
COc1cccc(C(=O)CCN[C@@H](C)[C@H](O)c2ccccc2)c1 :: 0.0
Oc1ccc(C(=C(Cl)Cl)c2ccc(O)cc2)cc1 :: 0.0
CC(C)(O)c1cnn2c(-c3ccc(F)c(-c4c(F)cccc4C#N)c3)cnc2n1 :: 0.0

*Q* Could you kindly confirm the outcome this assay logged for Nc1ccc(Sc2ccc(N)cc2)cc1 ?
*A* 0.0

*Q* Could you kindly confirm the outcome this assay logged for CCCCCCCCCBr ?
*A* 0.0

*Q* Could you kindly confirm the outcome this assay logged for O=c1[nH]c2ccccc2n1C1CCN(CCCC(c2ccc(F)cc2)c2ccc(F)cc2)CC1 ?
*A* 1.0

*Q* Could you kindly confirm the outcome this assay logged for Cc1cc(C(F)(C(F)(F)F)C(F)(F)F)ccc1NC(=O)c1cccc(I)c1C(=O)NC(C)(C)CS(C)(=O)=O ?
*A* 0.0

*Q* Could you kindly confirm the outcome this assay logged for O=C(O)c1cc[c]([Hg][Cl])cc1 ?
*A* 0.0

*Q* Could you kindly confirm the outcome this assay logged for CC1(C)[C@H](C(=O)O[C@H](C#N)c2cccc(Oc3ccccc3)c2)[C@@H]1/C=C(\Cl)C(F)(F)F ?
*A* 0.0

*Q* Could you kindly confirm the outcome this assay logged for Oc1ccc(C(c2ccc(O)cc2)(C(F)(F)F)C(F)(F)F)cc1 ?
*A* 0.0

*Q* Could you kindly confirm the outcome this assay logged for COc1ccc(OC)c(CC(C)N)c1 (stereo not given) ?
*A* 0.0

*Q* Could you kindly confirm the outcome this assay logged for CC(C)CC(C)Nc1ccc(Nc2ccccc2)cc1 (stereo not given) ?
*A* 1.0

*Q* Could you kindly confirm the outcome this assay logged for Fc1cccc(Cl)c1CCl ?
*A* 0.0

*Q* Could you kindly confirm the outcome this assay logged for CC(=O)OC1(c2ccccc2)CCN(CCc2ccccc2)CC1 ?
*A* 0.0

*Q* Could you kindly confirm the outcome this assay logged for Cc1c(Cl)c(=O)oc2cc(OP(=O)(OCCCl)OCCCl)ccc12 ?
*A* 0.0

*Q* Could you kindly confirm the outcome this assay logged for FC(F)(F)c1cccc(C2=CCN(CCc3ccc4ccccc4c3)CC2)c1 ?
*A* 0.0

*Q* Could you kindly confirm the outcome this assay logged for Cc1cc(C(C)(C)c2cc(C)c(O)c(C)c2)cc(C)c1O ?
*A* 1.0

*Q* Could you kindly confirm the outcome this assay logged for C[C@@H]1O[C@@H](O[C@@H]2C=C3CC[C@@H]4[C@H](CC[C@]5(C)[C@@H](c6ccc(=O)oc6)CC[C@]45O)[C@@]3(C)CC2)[C@H](O)[C@H](O)[C@H]1O ?
*A* 1.0

*Q* Could you kindly confirm the outcome this assay logged for CC(C)Oc1cccc(NC(=O)c2ccccc2C(F)(F)F)c1 ?
*A* 0.0

*Q* Could you kindly confirm the outcome this assay logged for O=C1NCN(c2ccccc2)C12CCN(CC1COc3ccccc3O1)CC2 (stereo not given) ?
*A* 0.0

*Q* Could you kindly confirm the outcome this assay logged for CCCCCCCCCC[N+](C)(C)CCCCCCCCCC ?
*A* 1.0

*Q* Could you kindly confirm the outcome this assay logged for CC(C)OC(=O)C(O)(c1ccc(Cl)cc1)c1ccc(Cl)cc1 ?
*A* 0.0

*Q* Could you kindly confirm the outcome this assay logged for CCCN(CC)CC1COC2(CCC(C(C)(C)C)CC2)O1 (stereo not given) ?
*A* 0.0
